- assay_target: T1, transforming growth factor-beta 3 (TGF-β3) (UniProt P10600 301-412)
- T1 construct: also called TGFb3; TGFB3
- T1 sequence (looked up): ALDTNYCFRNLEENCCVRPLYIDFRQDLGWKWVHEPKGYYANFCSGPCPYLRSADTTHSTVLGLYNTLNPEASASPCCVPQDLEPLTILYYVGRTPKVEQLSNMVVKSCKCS
- protocol: ELISA, peptide on streptavidin plate, ligand 100 ng/ml
Ends that are not written are not given here.
Classify as follows. Reported ELISA OD450 greater than or equal to 0.09 OD450: met. Reported ELISA OD450 below: not met.

# example entries with known answers
Q: # bool: ELISA OD450 of GSIYIHVYFTKSGFHPDPRQG (also: biotinylated, site not given here) [CLPTM1 peptide fragment of SEQ ID NO: 16] >= 0.09 OD450
Result: not met

Q: # check: ELISA OD450 of TKSGFHPDPRQKALYRRLATVHMSRMINKYKRRRFQKTKN (also: biotinylated, site not given here, also called peptide 30; GT6) [CLPTM1 peptide fragment of SEQ ID NO: 37] is greater than or equal to 0.09 OD450
Result: met

Q: Does ELISA OD450 meet or surpass 0.09 OD450 for FTDFNATSALFWEQHDLVYGG (also: biotinylated, site not given here) [CLPTM1 peptide fragment of SEQ ID NO: 31] ?
Result: not met

--- query ---
Q: Please indicate if the recorded ELISA OD450 for WQVIKGVLFRIFIIWAISSWG (also: biotinylated, site not given here) [CLPTM1 peptide fragment of SEQ ID NO: 29] meets or exceeds 0.09 OD450.
Result: not met
